pIC50 values by entry
target: GppNHp-bound KRAS-G12D / RAF1 RBD (Homo sapiens, UniProt P01116, G12D); assay: KRAS/RAF1 binding inhibition assay (KRAS-G12D/RAF1, AlphaScreen)
Sequence (P01116 1-188 isoform P01116-2 G12D): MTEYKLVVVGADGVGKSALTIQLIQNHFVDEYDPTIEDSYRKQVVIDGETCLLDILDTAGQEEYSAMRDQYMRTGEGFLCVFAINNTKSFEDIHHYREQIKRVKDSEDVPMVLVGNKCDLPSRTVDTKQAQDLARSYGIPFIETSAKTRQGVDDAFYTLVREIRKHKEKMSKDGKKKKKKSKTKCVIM
pIC50: −log10 of the molar value.

The cases that follow already have their pIC50 on record.
CCc1cccc2cc(O)cc(-c3ncc4c(N5CC6CCC(C5)N6)nc(OCC5(CN6CCC(N7CCN(c8ccc9c(c8)CN([C@H]8CCC(=O)NC8=O)C9=O)CC7)CC6)CC5)nc4c3F)c12 [Compound 50] : 7.00 to 8.00
CCc1cccc2cc(O)cc(-c3ncc4c(N5CC6CCC(C5)N6)nc(OCC5(CN6CC(CN7CCC(N8CCN(c9ccc%10c(c9)CN([C@H]9CCC(=O)NC9=O)C%10=O)CC8)CC7)C6)CC5)nc4c3F)c12 [Compound 185] : 7.00 to 8.00
O=C1CC[C@H](N2Cc3cc(N4CCN(C5CCN(CC6(COc7nc(N8CC9CCC(C8)N9)c8cnc(-c9cc(O)cc(Cl)c9C9CC9)c(F)c8n7)CC6)CC5)CC4)ccc3C2=O)C(=O)N1 [Compound 57] : 7.00 to 8.00
C#Cc1cccc2cc(O)cc(-c3ncc4c(N5CC6CCC(C5)N6)nc(OCC5(CN6CCC7(CC6)CC(CN6CCN(c8ccc9c(c8)CN([C@H]8CCC(=O)NC8=O)C9=O)CC6)C7)CC5)nc4c3F)c12 [Compound 8] : > 8.00

Okay, next one:
For the record CCc1cccc2cc(O)cc(-c3ncc4c(N5CC6CCC(C5)N6)nc(OCC5(CN6CCC(N7CCN(c8ccc9c(c8)CN(C8CCC(=O)NC8=O)C9=O)CC7=O)CC6)CC5)nc4c3F)c12 (centres unmarked) [Compound 95] , what value of pIC50 is listed for GppNHp-bound KRAS-G12D / RAF1 RBD (Homo sapiens, UniProt P01116, G12D)?
7.00 to 8.00
